# Tested on: Wolbachia pipientis
# assay.notes: Anti-Wolbachia Cell-Based Screen
# Type: functional
# Design: scale not given: in the data most compounds retested in dose-response had high values
# particulars: 5 µM
Among all 48,000 compounds or so, about 13,000 (27%) showed an effect of 50% or more. Some of the results follow.
assay.readout: Percent Effect (%)

{"columns": ["smi", "system", "reading"],
 "data": [
  ["CC1=C(c2ccc(F)cc2)S(=O)(=O)N=C1N1CCc2ccccc21", "Wolbachia pipientis", 117.2],
  ["CCOc1ncccc1C(=O)NCCN(CC)C1CC1", "Wolbachia pipientis", -2.077],
  ["CCN(CCNC(=O)c1ccccc1Br)C1CC1", "Wolbachia pipientis", -1.027],
  ["Cc1cccc(NC(=O)Cc2cnc3n(C)c(=O)[nH]c(=O)n23)c1", "Wolbachia pipientis", 101.4],
  ["COc1ccc(C2=C(C)C(N3CCc4ccccc43)=NS2(=O)=O)cc1", "Wolbachia pipientis", 41.03],
  ["CC1=C(c2ccc(C(C)C)cc2)S(=O)(=O)N=C1N1CCc2ccccc21", "Wolbachia pipientis", 127.3],
  ["CCN(CCNC(=O)c1cccc(C)c1C)C1CC1", "Wolbachia pipientis", 95.34],
  ["O=C(NC1CC1)C1CN(C(=O)c2cnccn2)C1", "Wolbachia pipientis", -10.02],
  ["CCCc1cc(C(=O)NCCCC(=O)N2Cc3ccccc3C2)[nH]n1", "Wolbachia pipientis", -1.2],
  ["COc1ccc(C2=C(C)C(N3CCc4ccccc4C3)=NS2(=O)=O)cc1", "Wolbachia pipientis", -1.571],
  ["CS(=O)(=O)NCCC(=O)Nc1ccccc1N1CCc2ccccc21", "Wolbachia pipientis", 4.986],
  ["Cc1ccc(NC(=O)CSCc2cccnc2)nc1", "Wolbachia pipientis", 4.357]
]}
